Data credit: PubChem BioAssay AID1996

Listed here: items and their measured solubility kinetic.
Details: buffer; pH 7.4; 200.0 µM
reported.property: solubility kinetic

>>> observed_result("COc1ccc(S(=O)(=O)Nc2cccnc2)cc1")
"> 39.6 µg/mL"
>>> observed_result("O=C(COC(=O)c1cccnc1Cl)NC1CCCCC1")
"> 44.5 µg/mL"
>>> observed_result("CCC1CCCCN1CC(=O)Nc1ccc2c(c1)OCCO2 (stereo not given)")
"> 45.7 µg/mL"
>>> observed_result("CCCC(=O)N1CCC(Cc2ccccc2)CC1")
"> 36.8 µg/mL"
>>> observed_result("Cc1nnc(NS(=O)(=O)c2ccc(N)cc2)s1")
"> 40.5 µg/mL"

----------
Conditions: buffer; pH 7.4; 200.0 µM
reported.property: solubility kinetic (µg/mL)

>>> observed_result("Cc1ccc(SCCSc2nc(N)cc(=O)[nH]2)cc1")
6.7
>>> observed_result("C/C(N)=C(/C#N)C(=O)COC(=O)c1ccc(OCC2CCCO2)cc1 (stereo not given)")
51.5
>>> observed_result("O=C(COC(=O)c1ccc(O)cc1)Nc1ccc2c(c1)OCCO2")
21.9
>>> observed_result("Cc1ccc2c(CN3CCCCC3CCO)cc(=O)oc2c1 (stereo not given)")
39.4
>>> observed_result("O=S(=O)(c1ccc2ccccc2c1)N1CCNCC1")
32.7
>>> observed_result("O=c1[nH]cnc2c1C(c1ccc(Cl)cc1)c1c(nc[nH]c1=O)O2")
43.5
>>> observed_result("O=C(Nc1ccc(F)cc1)Nc1ccccc1N1CCCCC1")
0.3
>>> observed_result("O=C(COC(=O)c1cccnc1)NC1CCCc2ccccc21 (stereo not given)")
39.3
>>> observed_result("Cc1onc(-c2ccccc2)c1C(=O)NCc1ccccc1F")
6.5

----------
Listed here: items and their measured solubility kinetic.
Details: buffer; pH 7.4; 200.0 µM
reported.property: solubility kinetic

>>> observed_result("CCc1ccc[n+](-c2nc([O-])sc2C=O)c1")
"> 35.1 µg/mL"
>>> observed_result("CC1CN(C(=O)COC(=O)c2cc(Cl)ccc2Cl)CC(C)O1 (stereo not drawn)")
"> 51.9 µg/mL"
>>> observed_result("Cc1cc(=O)oc(C)c1C(=O)Nc1cccc(F)c1")
"> 39.2 µg/mL"
>>> observed_result("CC(NC(=O)COc1cccnc1[N+](=O)[O-])c1ccc(Cl)cc1 (stereo not drawn)")
"> 50.4 µg/mL"
>>> observed_result("C=C(Br)Cn1cnc2ccccc21")
"> 35.6 µg/mL"
>>> observed_result("O=C(NCc1ccccn1)Nc1ccccc1")
"> 34.1 µg/mL"
>>> observed_result("O=C(C1CCCCC1)N1CC(=O)N2CCc3ccccc3C2C1 (stereo not drawn)")
"> 46.9 µg/mL"
>>> observed_result("CCC(=O)OCCn1c(=O)c2ccccc2c2ccccc2c1=O")
"> 48.5 µg/mL"
>>> observed_result("O=C(CS(=O)CC(=O)Nc1cccnc1)Nc1ccc(F)cc1 (stereo not drawn)")
"> 50.3 µg/mL"
>>> observed_result("O=C(O)COc1ccc(S(=O)(=O)N2CCCC2)cc1")
"> 42.8 µg/mL"
>>> observed_result("CC1=C(C)CC(C(=O)NCc2c(F)cccc2Cl)C(C(=O)O)C1 (stereo not drawn)")
"> 51 µg/mL"
>>> observed_result("COC(=O)c1cnc(Nc2cccc(C(F)(F)F)c2)c([N+](=O)[O-])c1")
"< 0.2 µg/mL"
>>> observed_result("COc1ccccc1S(=O)(=O)c1c(C)cc(C)[nH]c1=O")
"> 44 µg/mL"
>>> observed_result("O=C(O)CCCn1c(=O)c2cccn2c2ccc(F)cc21")
"> 43.2 µg/mL"
>>> observed_result("N#CC1(Nc2cccc(Br)c2)C(=O)Nc2ccccc21 (stereo not drawn)")
"> 49.2 µg/mL"
>>> observed_result("CCOC(=O)c1cc2c(ccn2C)n1CC(=O)N(C)C")
"> 41.6 µg/mL"
>>> observed_result("CCOC(=O)c1ccc(NC(=S)NC(=O)C2CCCC2)cc1")
"< 0.3 µg/mL"
>>> observed_result("CCc1ccc(S(=O)(=O)Nc2nccs2)cc1")
"27.5 µg/mL"
>>> observed_result("O=C(Cc1cccs1)NCCCc1ccccc1")
"> 38.9 µg/mL"
>>> observed_result("O=[N+]([O-])c1ccc(C2NS(=O)(=O)N=C3CCCCCN32)cc1 (stereo not drawn)")
"> 48.7 µg/mL"
>>> observed_result("Cc1ccc2[nH]c(=O)c(CN(C(=O)c3cccc([N+](=O)[O-])c3)C(C)C)cc2c1")
"2.6 µg/mL"
>>> observed_result("O=C(O)CN1C(=O)C(=O)N(Cc2ccccc2F)C1=O")
"> 42 µg/mL"
>>> observed_result("COc1ccc2c(CC(=O)NNC(=O)c3ccc(O)cc3)coc2c1")
"> 51.1 µg/mL"
>>> observed_result("COC(=O)c1ccc(NC(=O)c2cccc(C)c2)cc1")
"5.4 µg/mL"
>>> observed_result("CCn1c(=O)c([N+](=O)[O-])c(NCC2CCCO2)c2ccccc21 (stereo not drawn)")
"47.5 µg/mL"
>>> observed_result("O=[N+]([O-])c1cccnc1N1CCN(c2ccccc2F)CC1")
"9.6 µg/mL"
>>> observed_result("CC1C(=O)Nc2ccc(S(=O)(=O)N3CCCCCC3)cc21 (stereo not drawn)")
"> 46.3 µg/mL"
>>> observed_result("O=S(=O)(c1ccc(Cl)cc1)N1CCCC1c1cccnc1 (stereo not drawn)")
"> 48.4 µg/mL"
